Test system: Jurkat acute T cell leukemia cell line
test-description: Growth inhibition assay (CellTiter-Glo)
run-conditions: read-out: ADC potency, IC50, Jurkat, 5-days treatment, 3000 cells per well
pIC50: −log10 of the molar value.
pIC50 reference

{"columns": ["molecule", "pIC50"],
 "data": [
  ["Ab14-CZ (conjugate) VH: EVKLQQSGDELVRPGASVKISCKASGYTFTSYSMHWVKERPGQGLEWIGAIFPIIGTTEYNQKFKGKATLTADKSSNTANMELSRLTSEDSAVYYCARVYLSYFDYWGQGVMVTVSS VL: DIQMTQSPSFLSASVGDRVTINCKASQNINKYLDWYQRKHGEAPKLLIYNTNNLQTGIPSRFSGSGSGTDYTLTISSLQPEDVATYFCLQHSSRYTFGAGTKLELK", 10.20],
  ["Ab11-CZ (conjugate) VH: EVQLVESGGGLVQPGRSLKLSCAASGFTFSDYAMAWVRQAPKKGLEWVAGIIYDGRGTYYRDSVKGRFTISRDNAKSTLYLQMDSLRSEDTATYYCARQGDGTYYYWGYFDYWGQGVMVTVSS VL: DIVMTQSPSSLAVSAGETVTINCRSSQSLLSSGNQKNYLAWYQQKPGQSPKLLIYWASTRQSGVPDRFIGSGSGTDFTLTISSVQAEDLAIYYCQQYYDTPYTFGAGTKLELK", 9.51],
  ["Ab13-CZ (conjugate) VH: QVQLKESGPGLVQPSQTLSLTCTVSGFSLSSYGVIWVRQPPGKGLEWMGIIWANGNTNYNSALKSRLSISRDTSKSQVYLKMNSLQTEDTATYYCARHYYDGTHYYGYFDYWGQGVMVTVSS VL: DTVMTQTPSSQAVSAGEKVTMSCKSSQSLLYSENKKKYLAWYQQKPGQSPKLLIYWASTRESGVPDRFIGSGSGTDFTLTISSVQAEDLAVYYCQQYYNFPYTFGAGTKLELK", 9.83]
]}
